Values from the NIST ThermoML archive (doi:10.1021/acs.jced.6b00269)

For each entry below, report its viscosity value.
Conditions: 313.15 K; 101.33 kPa; Liquid; Cone and plate viscometry
± gives the expanded uncertainty stated by the source.

For the compound CCCC[P+](CC)(CC)CC.Cc1ncc([N+](=O)[O-])[n-]1 [butyltriethylphosphonium 2-methyl-5-nitroimidazolide] , report viscosity.
150 ± 10 mPa·s

For the compound CCCCCCC[P+](CC)(CC)CC.O=[N+]([O-])c1cn[n-]c1 [triethylheptylphosphonium 4-nitropyrazolide] , give its measured viscosity value.
97 ± 7 mPa·s

Give the reported value of viscosity for this record: CCCCCCCC[P+](CC)(CC)CC.O=[N+]([O-])c1c[n-]cn1 [triethyloctylphosphonium 4-nitroimidazolide]
120 ± 8 mPa·s

Write down viscosity measured for item CCCCCCCCSC(N(C)C)=[N+](C)C.O=S(=O)([N-]S(=O)(=O)C(F)(F)F)C(F)(F)F
56 ± 4 mPa·s

Using known records, supply viscosity for CCCCCCCCCCCCCC[P+](CCCCCC)(CCCCCC)CCCCCC.O=[N+]([O-])c1cn[n-]c1 [trihexyl(tetradecyl)phosphonium 4-nitropyrazolide]
280 ± 21 mPa·s

Tell me measured viscosity for CC(=O)[O-].CCCCCCn1cc[n+](C)c1 [3-hexyl-1-methylimidazolium acetate] please.
372 ± 28 mPa·s

# return recorded viscosity for entry CC(=O)[O-].CCCCCCCCCCCCCC[P+](CCCCCC)(CCCCCC)CCCCCC [trihexyl(tetradecyl)phosphonium acetate]
172 ± 12 mPa·s

Entry CC[P+](CC)(CC)COCCOC.Cc1ncc([N+](=O)[O-])[n-]1 needs its viscosity filled in; supply it.
65 ± 4 mPa·s

Return viscosity for the following compound: CCCCCCCC[P+](CC)(CC)CC.O=S(=O)([N-]S(=O)(=O)C(F)(F)F)C(F)(F)F [triethyloctylphosphonium bis(trifluoromethylsulfonyl)imide]
57 ± 4 mPa·s

Identify viscosity associated with the compound CCC=Cn1cc[n+](C)c1C.O=[N+]([O-])c1cn[n-]c1 [1-but-1-enyl-2,3-dimethylimidazolium 4-nitropyrazolide]
179 ± 13 mPa·s

Find the measured viscosity of CCCCCCCC[P+](CC)(CC)CC.Cc1ncc([N+](=O)[O-])[n-]1 [triethyloctylphosphonium 2-methyl-5-nitroimidazolide] and report it.
237 ± 17 mPa·s

# return recorded viscosity for input CCCCCCCCCCCCCC[P+](CCCCCC)(CCCCCC)CCCCCC.Cc1ncc([N+](=O)[O-])[n-]1 [trihexyl(tetradecyl)phosphonium 2-methyl-5-nitroimidazolide]
420 ± 32 mPa·s

Give the reported viscosity for this compound. CCCCCCn1cc[n+](C)c1.O=[N+]([O-])c1cn[n-]c1 [1-hexyl-3-methylimidazolium 4-nitropyrazolide]
139 ± 10 mPa·s

Give the measured viscosity for CCCCCCn1cc[n+](C)c1C.O=[N+]([O-])c1cn[n-]c1 [1-hexyl-2,3-dimethylimidazolium 4-nitropyrazolide]
303 ± 23 mPa·s

Identify measured viscosity associated with CCCCCCCCCCCCCC[P+](CCCCCC)(CCCCCC)CCCCCC.Clc1nc[n-]c1Cl [trihexyl(tetradecyl)phosphonium 4,5-dichloroimidazolide]
308 ± 23 mPa·s

Please report the measured viscosity for CCCC[S+]1CCCCC1.O=S(=O)([N-]S(=O)(=O)C(F)(F)F)C(F)(F)F [1-butylthianium bis(trifluoromethylsulfonyl)imide]
57 ± 4 mPa·s

Identify the reported viscosity for the following entry. CCC=C[P+](CC)(CC)CC.O=[N+]([O-])c1cn[n-]c1 [(buten-1-yl)triethylphosphonium 4-nitropyrazolide]
63 ± 4 mPa·s

Fill in viscosity for record CCCCCCCCCC[P+](CC)(CC)CC.O=[N+]([O-])c1cn[n-]c1 [decyltriethylphosphonium 4-nitropyrazolide]
133 ± 9 mPa·s

Give viscosity for the following compound: CCC[n+]1ccn(C)c1C.O=[N+]([O-])c1cn[n-]c1 [1,2-dimethyl-3-propylimidazolium 4-nitropyrazolide]
200 ± 10 mPa·s

Answer with reported viscosity of CCCCCCCC[P+](CC)(CC)CC.O=[N+]([O-])c1cn[n-]c1 [triethyloctylphosphonium 4-nitropyrazolide]
103 ± 7 mPa·s

====

Hi there, I'd appreciate the recorded mass density for every entry that follows.
Details: 343.15 K; 101.33 kPa; Liquid; Vibrating tube method
± gives the expanded uncertainty stated by the source.
Answer format: number, then unit.

For the compound CCCC[P+](CC)(CC)CC.Cc1ncc([N+](=O)[O-])[n-]1 [butyltriethylphosphonium 2-methyl-5-nitroimidazolide] , give its measured mass density value.
1039.2 ± 5.8 kg/m3

Name the recorded mass density of the item CC(=O)[O-].CCCCCCn1cc[n+](C)c1 [3-hexyl-1-methylimidazolium acetate] in your answer.
989.6 ± 5.3 kg/m3

Indicate its recorded mass density; the compound in question is CCCCCCCCCCCCCC[P+](CCCCCC)(CCCCCC)CCCCCC.O=[N+]([O-])c1c[n-]cn1 [trihexyl(tetradecyl)phosphonium 4-nitroimidazolide]
914 ± 4.6 kg/m3

Consider the compound CCCCCCCCCCCCCC[P+](CCCCCC)(CCCCCC)CCCCCC.Cc1ncc([N+](=O)[O-])[n-]1 [trihexyl(tetradecyl)phosphonium 2-methyl-5-nitroimidazolide] and give its recorded mass density.
912.5 ± 4.6 kg/m3

Report mass density, nothing else, for this compound: CCCCCCCCCCCCCC[P+](CCCCCC)(CCCCCC)CCCCCC.Clc1nc[n-]c1Cl [trihexyl(tetradecyl)phosphonium 4,5-dichloroimidazolide]
937.2 ± 4.8 kg/m3

Please indicate mass density recorded for CCCCCCCCC[P+](CC)(CC)CC.O=[N+]([O-])c1cn[n-]c1 [triethylnonylphosphonium 4-nitropyrazolide]
995.3 ± 5.3 kg/m3

Determine its reported mass density: CCCCCCCC[P+](CC)(CC)CC.O=S(=O)([N-]S(=O)(=O)C(F)(F)F)C(F)(F)F [triethyloctylphosphonium bis(trifluoromethylsulfonyl)imide]
1208.4 ± 7.9 kg/m3

Give mass density for the following compound: CCCC[P+](CC)(CC)CC.O=[N+]([O-])c1cn[n-]c1 [butyltriethylphosphonium 4-nitropyrazolide]
1051.3 ± 6 kg/m3

====

Conditions: 308.15 K; 101.33 kPa; Liquid; Vibrating tube method
Class met: mass density at least 1000 kg/m3. Class not met: mass density below 1000 kg/m3.

Quick check: does CCCCCC[n+]1ccn(C)c1.O=S(=O)([N-]S(=O)(=O)C(F)(F)F)C(F)(F)F have mass density greater than or equal to 1000 kg/m3?
met

Hello, I need to know if CCCC[n+]1cccn1C.O=S(=O)([N-]S(=O)(=O)C(F)(F)F)C(F)(F)F [1-butyl-2-methylpyrazolium bis(trifluoromethylsulfonyl)imide] has measured mass density not below 1000 kg/m3. Thanks!
met

Quick check: does CCCC[P+](CC)(CC)CC.Cc1ncc([N+](=O)[O-])[n-]1 [butyltriethylphosphonium 2-methyl-5-nitroimidazolide] have mass density greater than or equal to 1000 kg/m3?
met

// inclusive: mass density at least 1000 kg/m3? input: CCCCCCn1cc[n+](C)c1C.O=[N+]([O-])c1cn[n-]c1 [1-hexyl-2,3-dimethylimidazolium 4-nitropyrazolide]
met

Dear colleague, could you confirm whether CCCC[P+](CC)(CC)CC.O=[N+]([O-])c1cn[n-]c1 [butyltriethylphosphonium 4-nitropyrazolide] has mass density at or above 1000 kg/m3?
met

Check the entry CCCCCCCCCCCCCC[P+](CCCCCC)(CCCCCC)CCCCCC.O=S(=O)([N-]S(=O)(=O)C(F)(F)F)C(F)(F)F : does mass density equal or exceed 1000 kg/m3?
met

Has CCCCCCSC(N(C)C)=[N+](C)C.O=S(=O)([N-]S(=O)(=O)C(F)(F)F)C(F)(F)F a recorded mass density greater than or equal to 1000 kg/m3?
met

Threshold query (mass density >= 1000 kg/m3) on CCCCCCCCCCCCCC[P+](CCCCCC)(CCCCCC)CCCCCC.O=[N+]([O-])c1c[n-]cn1 [trihexyl(tetradecyl)phosphonium 4-nitroimidazolide]
not met

API: above_or_equal(metric=mass density, cutoff=1000 kg/m3) for item CCCCCCCC[P+](CC)(CC)CC.O=S(=O)([N-]S(=O)(=O)C(F)(F)F)C(F)(F)F [triethyloctylphosphonium bis(trifluoromethylsulfonyl)imide]
met

hey, is mass density for this one >= 1000 kg/m3? CCCC[S+]1CCCC1.O=S(=O)([N-]S(=O)(=O)C(F)(F)F)C(F)(F)F
met

Could you tell me if the measured mass density of CCCCCCCCCCCCCC[P+](CCCCCC)(CCCCCC)CCCCCC.O=[N+]([O-])c1cn[n-]c1 [trihexyl(tetradecyl)phosphonium 4-nitropyrazolide] reaches 1000 kg/m3 or more?
not met

====

Conditions: 343.15 K; 101.33 kPa; Liquid; Vibrating tube method
± gives the expanded uncertainty stated by the source.
Value Type: mass density

Look up mass density of CCCCCCn1cc[n+](C)c1.N#Cc1ccc[n-]1 [1-hexyl-3-methylimidazolium 2-cyanopyrrolide] and report it.
995.1 ± 5.3 kg/m3

Entry CCC[n+]1ccn(C)c1C.O=[N+]([O-])c1cn[n-]c1 [1,2-dimethyl-3-propylimidazolium 4-nitropyrazolide] needs its mass density filled in; supply it.
1152.8 ± 7.2 kg/m3

Identify measured mass density associated with CCCCCCC[P+](CC)(CC)CC.O=[N+]([O-])c1cn[n-]c1 [triethylheptylphosphonium 4-nitropyrazolide]
1011.6 ± 5.5 kg/m3

Note mass density for the compound shown: CCCCCCn1cc[n+](C)c1C.O=[N+]([O-])c1cn[n-]c1 [1-hexyl-2,3-dimethylimidazolium 4-nitropyrazolide]
1090.4 ± 6.4 kg/m3

Give the reported mass density for this compound. CCCC[n+]1cccn1C.O=S(=O)([N-]S(=O)(=O)C(F)(F)F)C(F)(F)F [1-butyl-2-methylpyrazolium bis(trifluoromethylsulfonyl)imide]
1409.1 ± 11 kg/m3

Quickly give me recorded mass density for CC(=O)[O-].CCCCCCCCCCCCCC[P+](CCCCCC)(CCCCCC)CCCCCC [trihexyl(tetradecyl)phosphonium acetate]
858.7 ± 4.2 kg/m3

Dear colleague, please send me the reported mass density for CCCC[S+]1CCCC1.O=S(=O)([N-]S(=O)(=O)C(F)(F)F)C(F)(F)F when you can.
1413.6 ± 11 kg/m3

Give the reported value of mass density for this record: CCC=Cn1cc[n+](C)c1C.O=[N+]([O-])c1cn[n-]c1 [1-but-1-enyl-2,3-dimethylimidazolium 4-nitropyrazolide]
1151.5 ± 7.2 kg/m3

Indicate the recorded mass density value for this compound: CCCCCCCC[P+](CC)(CC)CC.O=[N+]([O-])c1c[n-]cn1 [triethyloctylphosphonium 4-nitroimidazolide]
1002.8 ± 5.4 kg/m3

Given CC[P+](CC)(CC)COCCOC.O=[N+]([O-])c1cn[n-]c1 , respond with its mass density.
1109.1 ± 6.7 kg/m3

Input CCCCCCCC[P+](CC)(CC)CC.Cc1ncc([N+](=O)[O-])[n-]1 [triethyloctylphosphonium 2-methyl-5-nitroimidazolide] , output reported mass density.
1002.7 ± 5.4 kg/m3

Please indicate mass density recorded for CCCCCCCCCC[P+](CC)(CC)CC.O=[N+]([O-])c1cn[n-]c1 [decyltriethylphosphonium 4-nitropyrazolide]
984.6 ± 5.2 kg/m3

Name the recorded mass density of the item CCCCCCn1cc[n+](C)c1.O=[N+]([O-])c1cn[n-]c1 [1-hexyl-3-methylimidazolium 4-nitropyrazolide] in your answer.
1094.2 ± 6.5 kg/m3

Answer with the recorded mass density for the compound listed here: CCCCCCCCSC(N(C)C)=[N+](C)C.O=S(=O)([N-]S(=O)(=O)C(F)(F)F)C(F)(F)F
1258.7 ± 8.6 kg/m3
